target: ScCyk3; assay: SPOT peptide array binding signal intensity (averaged, normalized) (arbitrary units (background-subtracted, floor 0; scale differs between SH3 domains)); higher = stronger binding of the SH3 domain to the peptide
MEASUREMENT LABEL: SPOT peptide array binding signal intensity
Answer with the value's number alone.

A selection of reference data follows.
QHQQRQPKRPKRYSL :: 216
LLGRKRPVMERVVDI :: 31.5

Value of measured SPOT peptide array binding signal intensity for the entry FPPKRKPLLRPQRSD : 38

Value of measured SPOT peptide array binding signal intensity for the entry HVRRSILALPLGVLL : 56

Source: the supplement of paper PMC4466140
